Measured values drawn from patent US11613531B2 for this set.

# study_system: Recombinant ROCK2 (amino acids 1-552) (Homo sapiens (Human))
# Sequence (O75116 1-552): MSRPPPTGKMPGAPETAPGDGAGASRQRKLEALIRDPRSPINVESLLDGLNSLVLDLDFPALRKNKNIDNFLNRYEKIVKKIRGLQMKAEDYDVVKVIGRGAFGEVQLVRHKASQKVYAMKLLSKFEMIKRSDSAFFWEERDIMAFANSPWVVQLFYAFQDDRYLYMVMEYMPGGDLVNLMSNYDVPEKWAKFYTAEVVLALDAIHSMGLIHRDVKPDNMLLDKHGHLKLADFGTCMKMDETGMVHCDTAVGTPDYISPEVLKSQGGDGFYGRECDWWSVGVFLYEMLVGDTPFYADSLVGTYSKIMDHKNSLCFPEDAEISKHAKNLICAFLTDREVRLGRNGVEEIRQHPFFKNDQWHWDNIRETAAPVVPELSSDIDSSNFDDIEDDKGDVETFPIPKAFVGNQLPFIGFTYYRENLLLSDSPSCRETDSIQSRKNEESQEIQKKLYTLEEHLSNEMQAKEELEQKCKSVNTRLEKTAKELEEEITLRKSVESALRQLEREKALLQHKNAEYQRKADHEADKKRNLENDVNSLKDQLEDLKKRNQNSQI
# test_method_notes: Z′-Lyte kinase assay, ROCK2
# Assay type: biochemical
pIC50: −log10 of the molar value.
Classification field: enter y for pIC50 values not below 8, n for values below it.

compound=FC(F)(F)c1nc(N2C3CCC2CNC3)nc(Nc2ccc3[nH]ncc3c2)c1Cl group=n
compound=c1cc(-c2cn[nH]c2)ccc1Nc1nc(N2C3CCC2CNC3)nc2c1CNC2 group=y
compound="OC1CC2CCC(C1)N2c1nccc(Nc2ccc(-c3cn[nH]c3)cc2)n1 (stereo not drawn)" group=n
compound=c1cc2[nH]ncc2cc1Nc1nc(N2C3CCC2CNC3)nc2c1COCC2 group=y
compound=N[C@@H]1CCN(c2nccc(Nc3ccc4[nH]ncc4c3)n2)C1 group=n
compound=c1cc(-c2ccc(Nc3nc(N4C5CNCC4C5)nc4c3COCC4)cc2)ccn1 group=n
compound=COc1nc(N2C3CCC2CNC3)nc(Nc2ccc3[nH]ncc3c2)c1F group=y
compound=c1cc(-c2cn[nH]c2)ccc1Nc1nc(N2C3CCC2CNC3)nc2c1COCC2 group=n
compound="Fc1cnc(N2CCC3NCC3C2)nc1Nc1ccc2[nH]ncc2c1 (stereo not drawn)" group=n
compound=c1cc(Nc2ccc(-c3ccnc4[nH]ccc34)cc2)nc(N2CCNCC2)n1 group=n
compound=c1cc(Nc2ccc(-c3cnc[nH]3)cc2)nc(N2CCNCC2)n1 group=n
compound="COc1ccccc1NC1CCCN(c2nccc(Nc3ccc4[nH]ncc4c3)n2)C1 (stereo not drawn)" group=n
compound="COc1cccc(C2CCN(c3nccc(Nc4ccc(-c5cn[nH]c5)cc4)n3)C2)c1 (stereo not drawn)" group=n
